The measured values listed here are drawn from ChEMBL document CHEMBL1139124.

testMethodNotes: Oral bioavailability in mouse at 2 mg/kg
Assay type: ADME, organism-based
runParameters: in vivo
quantityKind: bioavailability (%)

[
  {
    "smilesRepr": "COc1ccc2nccc([C@@H]3CN(C4CCN(Cc5cc6ccccc6[nH]5)CC4)C(=O)O3)c2c1",
    "recordedNumber": 18
  }
]

* * *

Listed here: items and their measured pIC50.
subjectOfTest: C-C chemokine receptor type 8 (Homo sapiens, UniProt P51685)
Sequence (P51685 whole entry): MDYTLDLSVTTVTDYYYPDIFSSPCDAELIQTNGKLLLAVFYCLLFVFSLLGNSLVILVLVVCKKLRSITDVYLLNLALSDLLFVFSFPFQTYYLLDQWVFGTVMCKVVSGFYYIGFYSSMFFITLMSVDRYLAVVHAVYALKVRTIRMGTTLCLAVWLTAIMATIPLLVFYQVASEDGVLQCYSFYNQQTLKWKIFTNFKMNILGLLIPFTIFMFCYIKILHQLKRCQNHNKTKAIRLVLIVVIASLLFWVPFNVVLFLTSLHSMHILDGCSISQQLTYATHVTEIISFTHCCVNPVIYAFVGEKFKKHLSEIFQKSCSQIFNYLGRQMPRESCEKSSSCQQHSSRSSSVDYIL
testMethodNotes: Antagonist activity at human recombinant CCR8 expressed in RBL cells assessed as inhibition of I-309-induced intracellular calcium mobilization by FLIPR assay
Format: functional, cell-based
pIC50: −log10 of the molar value.

[
  {
    "molecule": "O=C1OC(c2cccc3ccccc23)CN1C1CCN(Cc2cc3ccccc3[nH]2)CC1 (configuration not stated)",
    "ltGtEq": "<",
    "pIC50": 4.30
  },
  {
    "molecule": "COc1ccc2nccc(C3CN(C4CCN(Cc5cc6ccccc6o5)CC4)C(=O)O3)c2c1 (configuration not stated)",
    "ltGtEq": "=",
    "pIC50": 5.90
  },
  {
    "molecule": "O=C1OC(c2cnc3ccccc3c2)CN1C1CCN(Cc2cc3ccccc3[nH]2)CC1 (configuration not stated)",
    "ltGtEq": "<",
    "pIC50": 4.30
  },
  {
    "molecule": "COc1ccc2nccc(C3CN(CCCN(C)Cc4cc5ccccc5[nH]4)C(=O)O3)c2c1 (configuration not stated)",
    "ltGtEq": "=",
    "pIC50": 5.20
  },
  {
    "molecule": "COc1ccc2nccc(C3CN(C4CCN(CCCc5ccccc5)CC4)C(=O)O3)c2c1 (configuration not stated)",
    "ltGtEq": "=",
    "pIC50": 6.60
  },
  {
    "molecule": "COc1ccc2nccc(C3CN(C4CCN(C)CC4)C(=O)O3)c2c1 (configuration not stated)",
    "ltGtEq": "<",
    "pIC50": 4.30
  },
  {
    "molecule": "COc1ccc2nccc(C3CN(C4CCN(Cc5cc6ccccc6s5)CC4)C(=O)O3)c2c1 (configuration not stated)",
    "ltGtEq": "=",
    "pIC50": 6.10
  },
  {
    "molecule": "COc1ccc2nccc(C3CN(C4CCCCN(Cc5cc6ccccc6[nH]5)C4)C(=O)O3)c2c1 (configuration not stated)",
    "ltGtEq": "<",
    "pIC50": 4.30
  },
  {
    "molecule": "COc1ccc2nccc([C@@H]3CN(C4CCN(Cc5cc6ccccc6[nH]5)CC4)C(=O)O3)c2c1",
    "ltGtEq": "=",
    "pIC50": 7.70
  },
  {
    "molecule": "CCCCCCN1CCC(N2CC(c3ccnc4ccc(OC)cc34)OC2=O)CC1 (configuration not stated)",
    "ltGtEq": "=",
    "pIC50": 6.30
  },
  {
    "molecule": "COc1ccc2nccc(C3CN(C4CCN(Cc5ccccc5)CC4)C(=O)O3)c2c1 (configuration not stated)",
    "ltGtEq": "=",
    "pIC50": 4.90
  },
  {
    "molecule": "O=C1OC(c2ccc3ccccc3n2)CN1C1CCN(Cc2cc3ccccc3[nH]2)CC1 (configuration not stated)",
    "ltGtEq": "<",
    "pIC50": 4.30
  },
  {
    "molecule": "O=C1OC(c2ccnc3ccccc23)CN1C1CCN(Cc2cc3ccccc3[nH]2)CC1 (configuration not stated)",
    "ltGtEq": "=",
    "pIC50": 6.00
  },
  {
    "molecule": "COc1ccc2nccc(C3CN(C4CCN(Cc5ccc(-c6ccccc6)cc5)CC4)C(=O)O3)c2c1 (configuration not stated)",
    "ltGtEq": "<",
    "pIC50": 4.30
  },
  {
    "molecule": "COc1ccc2nccc(C3CN(CCCNCc4cc5ccccc5[nH]4)C(=O)O3)c2c1 (configuration not stated)",
    "ltGtEq": "=",
    "pIC50": 5.80
  },
  {
    "molecule": "COc1ccc2nccc(C3CN(C4CCN(Cc5ccc(Cl)cc5)CC4)C(=O)O3)c2c1 (configuration not stated)",
    "ltGtEq": "=",
    "pIC50": 6.20
  },
  {
    "molecule": "COc1ccc2nccc(C3CN(C4CCN(Cc5ccc6ccccc6c5)CC4)C(=O)O3)c2c1 (configuration not stated)",
    "ltGtEq": "=",
    "pIC50": 5.90
  }
]
